test system: Cystic fibrosis transmembrane conductance regulator (Homo sapiens), P13569 [F508del]; assay: Potentiation of CFTR F508del mutant (unknown origin) expressed in FRT cells assessed as chloride transport by measuring membrane potential in presence of forskolin relative to PG-01; assay type: cell-based; conditions: filed as activator
Sequence (P13569 as listed by the source): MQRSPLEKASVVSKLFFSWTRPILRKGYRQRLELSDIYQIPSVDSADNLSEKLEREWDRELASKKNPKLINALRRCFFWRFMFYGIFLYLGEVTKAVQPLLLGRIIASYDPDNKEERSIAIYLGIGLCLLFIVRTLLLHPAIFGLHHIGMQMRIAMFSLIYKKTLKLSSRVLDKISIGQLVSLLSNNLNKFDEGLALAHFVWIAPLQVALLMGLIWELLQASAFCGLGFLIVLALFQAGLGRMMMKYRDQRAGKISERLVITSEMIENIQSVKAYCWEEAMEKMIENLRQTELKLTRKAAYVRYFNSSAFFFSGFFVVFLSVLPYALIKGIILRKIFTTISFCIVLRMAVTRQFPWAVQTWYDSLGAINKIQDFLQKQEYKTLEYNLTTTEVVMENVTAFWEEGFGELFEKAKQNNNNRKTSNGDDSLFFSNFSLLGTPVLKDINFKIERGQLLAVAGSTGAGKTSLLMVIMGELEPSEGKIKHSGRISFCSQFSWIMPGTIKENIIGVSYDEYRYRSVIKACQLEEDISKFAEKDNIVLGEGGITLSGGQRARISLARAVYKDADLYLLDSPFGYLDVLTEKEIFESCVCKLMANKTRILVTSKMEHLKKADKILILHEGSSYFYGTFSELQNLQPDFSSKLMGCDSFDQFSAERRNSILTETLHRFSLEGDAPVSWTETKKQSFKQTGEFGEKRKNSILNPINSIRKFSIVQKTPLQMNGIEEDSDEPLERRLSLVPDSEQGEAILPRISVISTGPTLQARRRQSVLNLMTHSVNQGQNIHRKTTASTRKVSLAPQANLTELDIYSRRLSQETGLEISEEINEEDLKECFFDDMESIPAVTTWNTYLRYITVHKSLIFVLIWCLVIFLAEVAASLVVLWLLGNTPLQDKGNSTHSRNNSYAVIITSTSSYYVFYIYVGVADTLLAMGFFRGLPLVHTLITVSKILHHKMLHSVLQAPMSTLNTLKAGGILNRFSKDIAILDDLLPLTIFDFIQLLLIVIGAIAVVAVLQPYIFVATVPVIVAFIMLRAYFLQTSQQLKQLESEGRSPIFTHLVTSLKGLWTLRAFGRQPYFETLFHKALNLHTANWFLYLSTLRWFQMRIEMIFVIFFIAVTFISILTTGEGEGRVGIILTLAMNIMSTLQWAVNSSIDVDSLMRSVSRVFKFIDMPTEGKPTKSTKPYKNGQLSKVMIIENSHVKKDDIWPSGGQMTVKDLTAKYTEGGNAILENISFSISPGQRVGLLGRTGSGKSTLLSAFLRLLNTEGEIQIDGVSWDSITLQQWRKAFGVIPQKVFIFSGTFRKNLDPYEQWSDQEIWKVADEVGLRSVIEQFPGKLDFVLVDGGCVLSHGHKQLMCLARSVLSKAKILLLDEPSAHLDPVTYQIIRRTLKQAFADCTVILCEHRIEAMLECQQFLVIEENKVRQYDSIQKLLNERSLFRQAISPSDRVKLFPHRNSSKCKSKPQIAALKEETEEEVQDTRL
Measured Activity by item
Only the number, expressed in %, is required.

Input C[C@](O)(CNC(=O)c1nc(Br)c(C(F)(F)F)cc1N)C(F)(F)F . Output Activity: 106

Input COC(=O)c1cc(-c2ccco2)c(C(F)(F)F)cc1N . Output Activity: 100

Input COc1nc(C(=O)NC[C@](C)(O)C(F)(F)F)c(N)cc1C(F)(F)F [ICENTICAFTOR] . Output Activity: 92

Input O=c1c(-c2ccc(O)cc2)coc2cc(O)cc(O)c12 . Output Activity: 54

* * *

assay: Solubility of the compound at pH 6.8; format: physicochemical; settings: buffer
# binarize solubility: threshold 0.04 mg/mL inclusive, high side true, low side false

A selection of reference data follows.
C[C@@](O)(CNC(=O)c1nc(Br)c(C(F)(F)F)cc1N)C(F)(F)F
false
CNC(=O)c1cc(-c2ccco2)c(C(F)(F)F)cc1N
false
COc1nc(C(=O)NC[C@](C)(O)C(F)(F)F)c(N)cc1C(F)(F)F [ICENTICAFTOR]
true
COC(=O)c1nc(-c2ccco2)c(C(F)(F)F)cc1N
false
CN(C)c1nc(C(=O)NCC(C)(O)C(F)(F)F)c(N)cc1C(F)(F)F (stereo in doubt; 31a)
true

Please check the record Nc1cc(C(F)(F)F)c(Br)nc1C(=O)NCC(O)(C(F)(F)F)C(F)(F)F and state if its solubility is at or above 0.04 mg/mL.
false

Please check the record C[C@](O)(CNC(=O)c1nc(Br)c(C(F)(F)F)cc1N)C(F)(F)F and state if its solubility is at or above 0.04 mg/mL.
true

Please check the record Nc1cc(C(F)(F)F)c(Br)nc1C(=O)NC[C@@H](O)C(F)(F)F and state if its solubility is at or above 0.04 mg/mL.
true

Please check the record Nc1cc(C(F)(F)F)c(Br)nc1C(=O)NCCC(F)(F)F and state if its solubility is at or above 0.04 mg/mL.
true

Please check the record CCc1nc(C(=O)NCC(C)(O)C(F)(F)F)c(N)cc1C(F)(F)F (stereo in doubt; 28a) and state if its solubility is at or above 0.04 mg/mL.
true

Please check the record CC(C)(O)CNC(=O)c1nc(Br)c(C(F)(F)F)cc1N and state if its solubility is at or above 0.04 mg/mL.
false

Please check the record CNc1nc(C(=O)NCC(C)(O)C(F)(F)F)c(N)cc1C(F)(F)F (stereo in doubt; 30a) and state if its solubility is at or above 0.04 mg/mL.
false

Please check the record COC(=O)c1cc(-c2ncco2)c(C(F)(F)F)cc1N and state if its solubility is at or above 0.04 mg/mL.
false

Please check the record CCOc1nc(C(=O)NC[C@](C)(O)C(F)(F)F)c(N)cc1C(F)(F)F and state if its solubility is at or above 0.04 mg/mL.
true

Please check the record COC(=O)c1ccc(C(F)(F)F)cc1N and state if its solubility is at or above 0.04 mg/mL.
false

Please check the record CC(O)CNC(=O)c1nc(Br)c(C(F)(F)F)cc1N (racemic) and state if its solubility is at or above 0.04 mg/mL.
true

Please check the record COC(=O)c1cc(-c2cccnc2)c(C(F)(F)F)cc1N and state if its solubility is at or above 0.04 mg/mL.
true

Please check the record COC(=O)c1cc(-c2ccco2)c(C(F)(F)F)cc1N and state if its solubility is at or above 0.04 mg/mL.
false

Please check the record COC(=O)c1cc(I)c(C(F)(F)F)cc1N and state if its solubility is at or above 0.04 mg/mL.
false

Please check the record C[C@](O)(CNC(=O)c1nc(C(F)(F)F)c(C(F)(F)F)cc1N)C(F)(F)F and state if its solubility is at or above 0.04 mg/mL.
true

Please check the record Nc1cc(C(F)(F)F)c(Br)nc1C(=O)NC[C@H](O)C(F)(F)F and state if its solubility is at or above 0.04 mg/mL.
true

Please check the record COC(=O)c1cc(C2CCCO2)c(C(F)(F)F)cc1N (racemic) and state if its solubility is at or above 0.04 mg/mL.
false

* * *

assay: Mean residence time in cynomolgus monkey at 10 mg/kg, po or 0.1 mg/kg, iv after 48 hrs by LC-MS/MS analysis; assay type: ADME, organism-based, Macaca fascicularis; settings: in vivo
QUANTITY_KIND: MRT (h)
Only the number, expressed in h, is required.

Input COc1nc(C(=O)NC[C@](C)(O)C(F)(F)F)c(N)cc1C(F)(F)F . Output MRT: 3.3

* * *

test: Oral bioavailability in cynomolgus monkey at 10 mg/kg after 48 hrs by LC-MS/MS analysis; type: ADME, organism-based, Macaca fascicularis; details: in vivo
QUANTITY_KIND: bioavailability (%)
Only the number, expressed in %, is required.

Input COc1nc(C(=O)NC[C@](C)(O)C(F)(F)F)c(N)cc1C(F)(F)F . Output bioavailability: 26

* * *

Measured Activity by item
tested on: Cystic fibrosis transmembrane conductance regulator (Homo sapiens), P13569 [F508del]; experiment: Potentiation of CFTR F508del mutant (unknown origin) expressed in CHO cells assessed as chloride transport by measuring membrane potential incubated for 5 to 30 mins in presence of forskolin by Quattro assay relative to PG-01; format: cell-based; parameters: concentration or dose not given beside the values; details: filed as activator, time 5-30 min
Only the number, expressed in %, is required.

Field: example entries. Status: answers known.
CNc1nc(C(=O)NCC(C)(O)C(F)(F)F)c(N)cc1C(F)(F)F (stereo in doubt; 30b)
95
COC(=O)c1cc(-c2cccnc2)c(C(F)(F)F)cc1N
100
C[C@](O)(CNC(=O)c1nc(C(F)(F)F)c(C(F)(F)F)cc1N)C(F)(F)F
113
CC(O)(CNC(=O)c1ncc(C(F)(F)F)cc1N)C(F)(F)F (racemic)
78
CNC(=O)c1nc(Br)c(C(F)(F)F)cc1N
97
Nc1cc(C(F)(F)F)c(Br)nc1C(=O)NC[C@H](O)C(F)(F)F
102
COC(=O)c1cc(C2CCCO2)c(C(F)(F)F)cc1N (racemic)
90
Cc1nc(C(=O)NCC(C)(O)C(F)(F)F)c(N)cc1C(F)(F)F (racemic)
99

Input COC(=O)c1nc(-c2ccco2)c(C(F)(F)F)cc1N . Output Activity: 72

Input COC(=O)c1cc(-c2ccco2)c(C(F)(F)F)cc1N . Output Activity: 93

* * *

assay: Mean residence time in Sprague-Dawley rat at 3 mg/kg, po and 0.5 mg/kg, iv measured upto 48 hrs by LC-MS/MS analysis; format: ADME, organism-based; conditions: in vivo
QUANTITY_KIND: MRT (h)
Only the number, expressed in h, is required.

Input Nc1cc(C(F)(F)F)c(Br)nc1C(=O)NC[C@@H](O)C(F)(F)F . Output MRT: 1

* * *

experiment: Clearance in Sprague-Dawley rat at 5 mg/kg, po or 0.5 mg/kg, iv measured upto 48 hrs by LC-MS/MS analysis; format: ADME, organism-based; settings: in vivo
QUANTITY_KIND: clearance (mL/min/kg)
Only the number, expressed in mL/min/kg, is required.

Input COC(=O)c1cc(-c2ccco2)c(C(F)(F)F)cc1N . Output clearance: 30

* * *

assay: Volume of distribution in Sprague-Dawley rat at 3 mg/kg, po and 1 mg/kg, iv measured upto 48 hrs by LC-MS/MS analysis; assay type: ADME, organism-based; conditions: in vivo
Measured Vd by item
Record the result as a number with its unit.

Field: example entries. Status: answers known.
COc1nc(C(=O)NC[C@](C)(O)C(F)(F)F)c(N)cc1C(F)(F)F [ICENTICAFTOR]
3 L/kg
C[C@](O)(CNC(=O)c1nc(Br)c(C(F)(F)F)cc1N)C(F)(F)F
6.5 L/kg

Okay, next one:
Input C[C@](O)(CNC(=O)c1nc(C(F)(F)F)c(C(F)(F)F)cc1N)C(F)(F)F . Output Vd: 6.4 L/kg

* * *

assay: Mean residence time in Sprague-Dawley rat at 3 mg/kg, po and 1 mg/kg, iv measured upto 48 hrs by LC-MS/MS analysis; assay type: ADME, organism-based; settings: in vivo
QUANTITY_KIND: MRT (h)
Only the number, expressed in h, is required.

Input COc1nc(C(=O)NC[C@](C)(O)C(F)(F)F)c(N)cc1C(F)(F)F [ICENTICAFTOR] . Output MRT: 10.2

Input C[C@](O)(CNC(=O)c1nc(C(F)(F)F)c(C(F)(F)F)cc1N)C(F)(F)F . Output MRT: 7.2

Input C[C@](O)(CNC(=O)c1nc(Br)c(C(F)(F)F)cc1N)C(F)(F)F . Output MRT: 6.4
